biological target: wild-type RT of HIV-1 (Human immunodeficiency virus type 1 group M subtype B); assay: biochemical; type: biochemical; details: wild-type RT
quantity kind: kpol (s⁻¹)
Entry rule: numbers only, all in s⁻¹.

Q. # return recorded kpol for input Nc1ncnc2c1ncn2[C@H]1C[C@H](O)[C@@H](COP(=O)(O)OP(=O)(O)OP(=O)(O)O)O1 [dATP]
A. 50.16

Q. Note down kpol recorded for Nc1ncnc2c1ncn2CCOCP(=O)(O)OP(=O)(O)OP(=O)(O)O [PMEApp, PMEA diphosphate]
A. 6.8

Q. Please list kpol recorded for the molecule Nc1ncnc2c1ncn2CCOCP(O)(=S)OP(=O)(O)OP(=O)(O)O (stereo not shown) [Compound 12]
A. 0.55

Q. Output measured kpol for this item: C[C@@H](Cn1cnc2c(N)ncnc21)OCP(=O)(O)OP(=O)(O)OP(=O)(O)O [PMPApp, PMPA diphosphate]
A. 7
